read-out: Monokine induced gamma interferon (MIG), CXCL9 (gene 4283); assay: BSK_hDFCGF_MIG: BioMAP Diversity Plus: hDFCGF Assay for Monokine induced gamma interferon (MIG) Biomarker Activity (AID 2283063); details: primary human foreskin fibroblasts; actives raise or lower the signal
Calls of active or inactive are those of the source. How the source made its calls: active means hit-call score of the fitted dose curve at least 0.9, where 1 is the maximum; inactive means score below 0.9.
A correct response names exactly one class from 1 = active, -1 = inactive

## Task Tell me the recorded outcome of this test for O=C(NC(=O)c1c(F)cccc1F)Nc1cc(Cl)c(OC(F)(F)C(F)F)c(Cl)c1 .
## Result -1

## Task What did the test return for Cc1ccccc1CO[C@@H]1C[C@@]2(C(C)C)CC[C@]1(C)O2 ?
## Result -1

## Task Recorded call for C=CC(N)=O ?
## Result -1

## Task Look up the recorded call for CCCCCCCCOC(=O)c1ccccc1C(=O)OCCCCCCCC in this test.
## Result -1

## Task Name the outcome recorded for CCSC(=O)N(CC)C1CCCCC1 in the assay.
## Result -1

## Task Called result for O=S(=O)(O)C(F)(F)C(F)(F)C(F)(F)C(F)(F)C(F)(F)C(F)(F)F
## Result -1

## Task Name the outcome recorded for CCCN(CCC)N=O in the assay.
## Result -1

## Task Please let me know the test result on file for ClC1=C(Cl)[C@]2(Cl)[C@@H]3[C@@H]4C[C@@H]([C@H]5O[C@@H]45)[C@@H]3[C@@]1(Cl)C2(Cl)Cl .
## Result -1

## Task Dear all, I need the recorded test outcome for C1CC2OC2CC1C1CO1 (centres undefined) , thank you.
## Result -1

## Task GET /call?item= c1ccc(-c2ccccc2)cc1 returns the recorded outcome of this test.
## Result -1

## Task Identify the outcome logged in this assay for the molecule shown: O=S(=O)(O)C(F)(F)C(F)(F)C(F)(F)C(F)(F)F
## Result -1

## Task Which result was noted for this molecule in the test: CCOP(=S)(OCC)SCSC(C)(C)C
## Result -1

## Task Recorded call for CC#Cc1cc(C)nc(Nc2ccccc2)n1 ?
## Result -1

## Task How was CC(c1ccc(O)cc1)(c1ccc(O)cc1)c1ccc(O)cc1 classified in this test?
## Result 1

## Task Hey, what did the test say about Cc1cc(-c2ccc(N)c(C)c2)ccc1N ?
## Result -1

## Task Assay outcome for CCNc1nc(NC(C)C)nc(SC)n1 : what was it?
## Result -1

## Task What did the test return for ClC1=C(Cl)[C@]2(Cl)[C@@H]3[C@H]4C[C@H]([C@@H]5O[C@H]45)[C@@H]3[C@@]1(Cl)C2(Cl)Cl ?
## Result -1

## Task Recorded test call requested for C[C@]12CCC(=O)C=C1CC[C@@H]1[C@@H]2CC[C@]2(C)C(=O)CC[C@@H]12
## Result -1

## Task Returns: the outcome recorded for CCOCCOC(C)=O in this assay.
## Result -1

## Task # outcome recorded in this test, key = CC(C)C(=O)OCC(C)(C)C(OC(=O)C(C)C)C(C)C (centres undefined)
## Result -1

## Task Short answer needed: outcome of this test for O=NN(c1ccccc1)c1ccccc1 ?
## Result -1

## Task Given Cc1ccccc1O , state the outcome it received in this test.
## Result -1

## Task What outcome does the record of this test show for COS(=O)(=O)OC ?
## Result -1

## Task In this assay, the call recorded for CCCCCCCCCc1ccc(O)cc1 was what?
## Result 1

# credit: PubChem BioAssay (EPA / NIEHS)
